Measured TGI, listed per entry.
system: BT-549 breast; assay: NCI tumour cell line growth inhibition, 48 h

Some compounds with recorded TGI:
INSERT INTO assay_data (compound, experimental_target, val) VALUES
  ('Cc1nc2c(=O)[nH]ncc2[nH]1', 'BT-549 breast', '> 100 µM'),
  ('Cc1oc2c(C(=O)N/N=C\c3ccc(O)cc3O)c[nH]c2c1C', 'BT-549 breast', '> 54.6 µM'),
  ('c1ccc2nc(N/N=C3\CCCCC3C3CCCCC3)ccc2c1 (configuration not stated)', 'BT-549 breast', '22.1 µM'),
  ('COC(=O)C1=C(C=O)C2C=CC1C2 (configuration not stated)', 'BT-549 breast', '> 100 µM'),
  ('COc1ccc(/C=N/N/C(O)=c2/sc(=C(C#N)C#N)n(-c3ccccc3)c2=N)cc1', 'BT-549 breast', '> 100 µM'),
  ('C=C(CCOC)CCC1CCCCC/C1=N\N(C)C (configuration not stated)', 'BT-549 breast', '> 100 µM'),
  ('COc1ccc(C(=O)c2sc3nc4c(cc3c2N)CCCC4)cc1OC', 'BT-549 breast', '8.25 µM'),
  ('CCCCNC(=O)c1cc(S(=O)(=O)n2cc[nH]c2=O)c(SC)cc1Cl', 'BT-549 breast', '> 100 µM');

Please give the measured TGI for this compound: CNC(=S)/C(C#N)=C(\N)N1CCN(C)CC1
> 100 µM

* * *

Measured TGI, listed per entry.
tested on: MDA-N; experiment: NCI tumour cell line growth inhibition, 48 h

Some compounds with recorded TGI:
INSERT INTO measurements (compound, val) VALUES
  ('CCCCCCCCCCCC(=O)NCc1ccc(OC(=O)CCCCCCCCCCC)c(OC)c1', '> 100 µM'),
  ('O=[N+]([O-])/C(C(Cl)=C(Cl)Cl)=C(/Br)SCc1ccccc1', '4.04 µM'),
  ('OC(COc1cccc2ccccc12)CN1CCOCC1 (stereo not drawn)', '> 100 µM'),
  ('Cc1ccc(O)c(C2=CC3=NNC(=O)C3C(c3cccc(Br)c3)C2)c1 (stereo not drawn)', '> 75 µM'),
  ('CCCCCCN1CCc2c(C)c(C#N)c3nc4ccccc4n3c21', '> 100 µM'),
  ('CCOP(=O)(O)CC1OC(CO)C(O)C1O (stereo not drawn)', '> 100 µM'),
  ('COc1ccc(-c2cc(=O)c3c(O)cc(O)cc3o2)cc1OC', '> 100 µM'),
  ('C=CCc1cccc2cc(C(=O)NC3CCCCC3)c(=N)oc12', '47.3 µM');

Please give the measured TGI for this compound: ONCCCn1cnc2c(NC3CC3)ncnc21
> 100 µM

One more compound: Clc1ccccc1/C=C/c1ccnc2ccccc12
27.7 µM

One more compound: NC(Cc1ccccc1)P(=O)(O)O (stereo not drawn)
> 100 µM

One more compound: COc1cc([C@@H]2c3cc4c(cc3[C@@H](OC3OC5CO[C@@H](c6cccs6)OC5C(O)C3O)[C@H]3COC(=O)[C@H]23)OCO4)cc(OC)c1O (stereo partly drawn)
10.4 µM

One more compound: CC(CCOc1ccc2ccc(=O)oc2c1)C1=CC(=O)C(C)(C)O1 (stereo not drawn)
16.4 µM

One more compound: C=C(C(=O)OC)N1C(=O)CC(C)C1=O (stereo not drawn)
28.9 µM

One more compound: COC(=O)/C=C\[C@H]1[C@H](C)N1S(=O)(=O)c1ccc(C)cc1 (stereo partly drawn)
> 100 µM

One more compound: N#CC(C#N)=Cc1c[nH]c(=O)[nH]c1=O
> 100 µM

One more compound: CCSc1n/c(=C\c2ccc(N(C)C)cc2)c2nnnn12
> 100 µM

One more compound: S=C(Nc1ccccc1)c1ccc(CN2CCCCC2)s1
33.4 µM

One more compound: C[C@]12CCC(N3CCCC3)CC1=CC[C@@H]1[C@@H]2CC[C@]2(C)C(O)[C@H](n3ccnc3)C[C@@H]12 (stereo partly drawn)
> 100 µM

* * *

test system: UACC-257 melanoma; experiment: NCI tumour cell line growth inhibition, 48 h
reported-property: TGI

Please give the measured TGI for this compound: COc1cc(C(=O)N(C)N(C)C)cc(OC)c1OC
> 10 µM

One more compound: OCCN(CCO)c1ccc2c(-c3ccccc3)cc(N(CCO)CCO)nc2n1
> 100 µM

* * *

tested on: NCI-H226 lung; assay: NCI tumour cell line growth inhibition, 48 h
reported-property: TGI (µM)
Just the number in µM, nothing appended.

Some molecules with recorded TGI:
INSERT INTO assay_data (smiles_entry, reported_property, val) VALUES
  ('O=c1c2cc(I)ccc2nc(Sc2ccc([N+](=O)[O-])cc2[N+](=O)[O-])n1Cc1ccccc1', 'TGI', 10.3),
  ('Clc1ccccc1/C=C/c1ccnc2ccccc12', 'TGI', 33.3);

Please give the measured TGI for this molecule: C=C1c2nc3ccccc3n2C=C(c2ccc(C)cc2)N1c1ccccc1
15.3

One more molecule: O=c1ccccc(-c2ccc(Br)cc2)c1O
16.6

* * *

Measured TGI, listed per entry.
system: OVCAR-4 ovarian; test: NCI tumour cell line growth inhibition, 48 h

Some compounds with recorded TGI:
INSERT INTO assay_data (compound, val) VALUES
  ('O=c1ncc(I)cn1C1CC(O)C(CO)O1 (stereo not given)', '> 3250 µM'),
  ('COc1ccc(/C=N/N/C(O)=c2/sc(=C(C#N)C#N)n(-c3ccccc3)c2=N)cc1', '> 100 µM');

Please give the measured TGI for this compound: Nn1c(SCC(=O)O)nc2ccccc2c1=O
> 100 µM

One more compound: COc1cc(O)c2c(c1)OCC1(Cc3cc(OC)c(OC)cc31)C2=O (stereo not given)
> 100 µM

One more compound: CC(=O)N/C=C/c1cc(O)ccc1O
47.9 µM

One more compound: c1ccc(CC(Cc2ccccc2)C2=NCCCN2)cc1
> 100 µM

One more compound: COC1=CC(=O)c2c(cc(COP(N)(=O)N(CCBr)CCBr)n2C)C1=O (stereo not given)
10.5 µM

One more compound: COc1cc2cnc3c(c2c(OC)c1OC)Cc1cc2c(cc1-3)OCO2
> 100 µM

One more compound: O=c1c2cc(I)ccc2nc(Sc2ccc([N+](=O)[O-])cc2[N+](=O)[O-])n1Cc1ccccc1
15.6 µM

One more compound: CSc1nc(NC2OC(COC(C)=O)C(OC(C)=O)C(OC(C)=O)C2OC(C)=O)c(N=CC=Nc2c(NC3OC(COC(C)=O)C(OC(C)=O)C(OC(C)=O)C3OC(C)=O)nc(SC)[nH]c2=O)c(=O)[nH]1 (stereo not given)
> 100 µM

* * *

Measured GI50, listed per entry.
tested on: HCT-15 colon; assay: NCI tumour cell line growth inhibition, 48 h

Please give the measured GI50 for this compound: C[CH2][Pb]([CH2]C)([CH2]C)[O]C(=O)COC
0.737 µM

* * *

tested on: SNB-19 CNS; test: NCI tumour cell line growth inhibition, 48 h
Measured TGI, listed per entry.

Some compounds with recorded TGI:
INSERT INTO assay_data (compound, experimental_target, reported_property, val) VALUES
  ('CCCCCCCCCCCCCC(=O)NCO', 'SNB-19 CNS', 'TGI', '> 100 µM'),
  ('COc1cc2nn(-c3ccccc3)nc2c2nonc12', 'SNB-19 CNS', 'TGI', '> 100 µM'),
  ('Nc1ncnc2c1ncn2C1CC(O)C(CO)O1 (stereo unspecified)', 'SNB-19 CNS', 'TGI', '> 100 µM');

# query: TGI | item O=c1ccccc(-c2ccc(Br)cc2)c1O | system: SNB-19 CNS
> 100 µM

One more compound: COc1ccc2c(c1OC)-c1c(c3ccc([N+](=O)[O-])cc3c(=O)n1CCCN)C2=O
> 20.2 µM

One more compound: CN(CCCNC(=O)c1nn(-c2ccccc2)c2c1ccc1ccccc12)CCCNC(=O)c1nn(-c2ccccc2)c2c1ccc1ccccc12
3.29 µM

One more compound: Cc1ccc(CN(C)c2ccc(CO)c(Cl)c2)cc1
> 100 µM

One more compound: Clc1c2ncccc2cc2n[nH]nc12
> 100 µM

One more compound: CCCCC(=O)OC[n+]1ccc(-c2c(COC(=O)NC(C)C)c(COC(=O)NC(C)C)c3n2CCC3)cc1
> 100 µM

One more compound: Cc1cccc(C)c1NC(=O)C(=O)C(C#N)c1ccccc1 (stereo unspecified)
> 100 µM

One more compound: N#CC1CCCC2SC(F)(F)C(F)(F)C12 (stereo unspecified)
> 100 µM

* * *

system: OVCAR-4 ovarian; assay: NCI tumour cell line growth inhibition, 48 h
Measured TGI, listed per entry.

Please give the measured TGI for this compound: Cc1ccc(C2=NN(c3ccc(S(C)(=O)=O)cc3)C(=O)CC2)cc1
> 100 µM

One more compound: CCC12C=CCN3CCC4(c5cc(C6(C(=O)OC)CCCCCc7c6[nH]c6ccccc76)c(OC)cc5N(C)C4C(O)(C(=O)OC)C1OC(C)=O)C32 (stereo unspecified)
12.3 µM

Entry source: PubChem BioAssay (NCI)
